Assay: Apparent volume of distribution with respect to bioavailability in epithelial lining fluid of Swiss-Webster mouse infected with Pseudomonas aeruginosa at 200 mg/kg, ip administered as single dose
Format: ADME, organism-based
Conditions: read-out: Vc/F
Experimental endpoint: Vd/F (L)
// return numeric value only (unit: L, not printed)

Ask: # query: Vd/F of entry C[C@H]1COc2c(N3CCN(C)CC3)c(F)cc3c(=O)c(C(=O)O)cn1c23.C[C@H]1COc2c(N3CCN(C)CC3)c(F)cc3c(=O)c(C(=O)O)cn1c23.O [LEVOFLOXACIN]
Reply: 0.044

Recorded values, source ChEMBL document CHEMBL1649474.
